Values compiled from PubChem BioAssay (NCI).

In this section, each of the compounds is paired with its reported growth.
tested on: IGROV1 ovarian; assay: NCI-60 one-dose screen, 48 h (100 = growth as untreated, 0 = no growth, -100 = all killed); settings: 10 µM unless noted
About 83,000 compounds went through this panel and 20% of them were active in at least one assay; those are over-represented in the sample as a whole.
Observed Property: growth (%)

INSERT INTO assay_data (test_smiles, target_entity, observed_property, measurement_unit, test_result) VALUES
  ('COc1ccc(N/N=C/c2c(-c3ccc(S(C)(=O)=O)cc3)nc3ccccn23)cc1', 'IGROV1 ovarian', 'growth', '%', 51.9),
  ('N[C@@H](Cc1cn(-c2c3ccccc3nc3ccccc23)nn1)C(=O)O', 'IGROV1 ovarian', 'growth', '%', 97.5),
  ('N#Cc1ccc(C(=O)CSc2nc(Nc3ccc(S(N)(=O)=O)cc3)c3ccccc3n2)cc1', 'IGROV1 ovarian', 'growth', '%', 110),
  ('[Cl][Ru].c1ccc(-c2cccc(-c3ccccn3)n2)nc1.c1ccc(-c2ccnc3c2ccc2c(-c4ccccc4)ccnc23)cc1', 'IGROV1 ovarian', 'growth', '%', 21.4),
  ('CC1=C(C)C(=O)C(Nc2ccccc2)=C(Cl)C1=O', 'IGROV1 ovarian', 'growth', '%', 9.69),
  ('CC(=O)Nc1cc(F)cc(-c2ccc3[nH]cc(-c4ccccc4)c3n2)c1', 'IGROV1 ovarian', 'growth', '%', 25.7),
  ('COc1cccc(-c2nn(-c3ccccc3)cc2-c2ccnc(N3CCN(C(=O)c4ccccc4)CC3)c2)c1', 'IGROV1 ovarian', 'growth', '%', 76);

---

tested on: UO-31 renal; assay: NCI-60 one-dose screen, 48 h (100 = growth as untreated, 0 = no growth, -100 = all killed); details: 10 µM unless noted
The panel holds about 83,000 compounds, 20% with a hit somewhere; the sample as a whole holds those more often.
Record yes (1) whenever growth is at 40% or higher; record no (0) when lower.

INSERT INTO measurements (test_smiles, target_entity, qualitative_label) VALUES
  ('COc1ccc(COc2ccc(/C=C3/C(=O)Nc4cc(Cl)ccc43)cc2)cc1', 'UO-31 renal', 'yes (1)'),
  ('Cc1nc(-c2cc3ccccc3oc2=O)ccc1C(=O)/C=C/c1ccccn1', 'UO-31 renal', 'yes (1)'),
  ('c1ccc(CNc2ncnc3ccc(-c4cnc5[nH]ncc5c4)cc23)cc1', 'UO-31 renal', 'no (0)'),
  ('CCOC(=O)c1sc(NCC(=O)Nc2cccc([N+](=O)[O-])c2)c(C(=O)OCC)c1C', 'UO-31 renal', 'no (0)'),
  ('COc1ccc(-c2nn3c(-c4ccccc4F)nnc3s2)cc1', 'UO-31 renal', 'yes (1)');

---

In this section, each of the molecules is paired with its reported growth.
tested on: DU-145 prostate; assay: NCI-60 one-dose screen, 48 h (100 = growth as untreated, 0 = no growth, -100 = all killed); conditions: 10 µM unless noted
Compounds without any hit were thinned out: in the full panel of roughly 83,000, 20% have a hit.
Observed Property: growth (%)

INSERT INTO measurements (molecule, target_entity, measurement_unit, test_result) VALUES
  ('Cn1cc(-c2cc(N)n3nc(-c4cn(C)c5ccc(F)cc45)cc3n2)c2cc(F)ccc21', 'DU-145 prostate', '%', 44.8),
  ('C=CCn1c(SCC(=O)c2ccc(Br)cc2)nnc1-c1c[nH]c2ccccc12', 'DU-145 prostate', '%', 106),
  ('Nc1c(C(=O)Nc2ccc(C(F)(F)F)cc2)sc2nc(-c3cnccn3)cc(-c3cccs3)c12', 'DU-145 prostate', '%', 90.1),
  ('CCOc1ccc([C@H]2C(C(=O)c3ccc(Cl)cc3)C3(N[C@@H]2c2ccccc2)C(=O)Nc2ccc(Br)cc23)cc1 (some centres undefined)', 'DU-145 prostate', '%', 47.6);
